Tested on: MDA-MB-231
Assay: Cytotoxicity against human MDA-MB-231 cells assessed as growth inhibition after 72 hrs by MTT assay
Assay type: functional, cell-based
Conditions: MDA-MB-231, 72 h
pIC50: −log10 of the molar value.
Each entry below carries its recorded pIC50.

{"columns": ["compound_smiles", "value_comparator", "pIC50"],
 "data": [
  ["Cc1ccc(Nc2nnc(-c3c[nH]c4ccccc34)o2)cc1", "=", 4.56],
  ["Fc1ccc(Nc2nnc(-c3c[nH]c4ccccc34)o2)cc1", "<", 4.00],
  ["Clc1ccc(Nc2nnc(-c3c[nH]c4ccccc34)o2)cc1Cl", "=", 4.51],
  ["O=[N+]([O-])c1ccccc1Nc1nnc(-c2c[nH]c3ccccc23)o1", "=", 6.05],
  ["COc1ccc(Nc2nnc(-c3c[nH]c4ccccc34)o2)cc1", "=", 5.00],
  ["O=[N+]([O-])c1ccc(Nc2nnc(-c3c[nH]c4ccccc34)o2)cc1", "=", 5.45],
  ["Clc1ccc(Nc2nnc(-c3c[nH]c4ccccc34)o2)cc1", "=", 5.01],
  ["O=[N+]([O-])c1cccc(Nc2nnc(-c3c[nH]c4ccccc34)o2)c1", "=", 4.46],
  ["c1ccc(CNc2nnc(-c3c[nH]c4ccccc34)o2)cc1", "=", 5.19],
  ["Clc1cccc(Nc2nnc(-c3c[nH]c4ccccc34)o2)c1", "=", 5.05]
]}

* * *

System: UniProtKB P10415 | Read-out: IC50
Sequence (P10415 whole entry): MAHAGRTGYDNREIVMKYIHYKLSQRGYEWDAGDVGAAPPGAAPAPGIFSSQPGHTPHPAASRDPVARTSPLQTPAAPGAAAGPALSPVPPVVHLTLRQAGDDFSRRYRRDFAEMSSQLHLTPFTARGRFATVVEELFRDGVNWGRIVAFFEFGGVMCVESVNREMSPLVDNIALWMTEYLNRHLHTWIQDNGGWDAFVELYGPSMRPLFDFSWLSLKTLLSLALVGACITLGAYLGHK

{"columns": ["compound_smiles", "unit_spec", "IC50"],
 "data": [
  ["COc1ccc(Nc2nnc(-c3c[nH]c4ccccc34)o2)cc1", "µM", 29],
  ["Cc1ccc(Nc2nnc(-c3c[nH]c4ccccc34)o2)cc1", "µM", 21.1],
  ["O=[N+]([O-])c1ccccc1Nc1nnc(-c2c[nH]c3ccccc23)o1", "µM", 1.24]
]}
